# assay: wn = mass fraction of the nth substance listed
# measurement.conditions: 323.15 K; 101 kPa; Liquid; Taylor dispersion method; w1 = 0.2
reported.endpoint: binary diffusion coefficient (m2/s)

compound | readout.units | binary diffusion coefficient
NCCNCCN [di(2-aminoethyl)amine] + O | m2/s | 1.06e-09
CN(C)CCN(C)C [N,N,N',N'-tetramethyl-1,2-diaminoethane] + O | m2/s | 7.5e-10

(1) CNCCCN [N-methyl-1,3-diaminopropane] + O
(2) CN(C)CCCN(C)C [N,N,N',N'-tetramethyl-1,3-propanediamine] + O
Task: Compare binary diffusion coefficient: is it lower for 1 or for 2 ? Answer = label.
Result: 2

---

# assay: wn = mass fraction of the nth substance listed
# measurement.conditions: 318.15 K; 101 kPa; Liquid; Taylor dispersion method; w1 = 0.2
reported.endpoint: binary diffusion coefficient (m2/s)

Example entries begin here.
compound | readout.units | binary diffusion coefficient
CN(C)CCN(C)C [N,N,N',N'-tetramethyl-1,2-diaminoethane] + O | m2/s | 6.38e-10
NCCNCCN [di(2-aminoethyl)amine] + O | m2/s | 9.38e-10

(1) CNCCCN [N-methyl-1,3-diaminopropane] + O
(2) CN(C)CCCN(C)C [N,N,N',N'-tetramethyl-1,3-propanediamine] + O
Task: Would you mind telling me which has the lower recorded binary diffusion coefficient between 1 and 2 ? Give the chosen item's label as your response.
Result: 2

---

# assay: wn = mass fraction of the nth substance listed
# measurement.conditions: 318.15 K; 101 kPa; Liquid; Falling or rolling sphere viscometry; w1 = 0.4
reported.endpoint: viscosity (mPa·s)

molecule | viscosity (mPa·s)
CNCCCN [N-methyl-1,3-diaminopropane] + O | 2.979
CN(C)CCCN(C)C [N,N,N',N'-tetramethyl-1,3-propanediamine] + O | 3.182
CN(C)CCN(C)C [N,N,N',N'-tetramethyl-1,2-diaminoethane] + O | 3.205
NCCNCCN [di(2-aminoethyl)amine] + O | 4.049

---

# assay: wn = mass fraction of the nth substance listed
# measurement.conditions: 323.15 K; 101 kPa; Liquid; Falling or rolling sphere viscometry; w1 = 0.4
reported.endpoint: viscosity (mPa·s)

molecule | reported.result
CNCCCN [N-methyl-1,3-diaminopropane] + O | 2.525
CN(C)CCCN(C)C [N,N,N',N'-tetramethyl-1,3-propanediamine] + O | 2.681
NCCNCCN [di(2-aminoethyl)amine] + O | 3.302
CN(C)CCN(C)C [N,N,N',N'-tetramethyl-1,2-diaminoethane] + O | 2.682

---

# assay: wn = mass fraction of the nth substance listed
# measurement.conditions: 323.15 K; 101 kPa; Liquid; Vibrating tube method; w1 = 0.1
reported.endpoint: mass density (kg/m3)

molecule | mass density / kg/m3
CNCCCN [N-methyl-1,3-diaminopropane] + O | 980.2
NCCNCCN [di(2-aminoethyl)amine] + O | 990.6
CN(C)CCCN(C)C [N,N,N',N'-tetramethyl-1,3-propanediamine] + O | 974.6
CN(C)CCN(C)C [N,N,N',N'-tetramethyl-1,2-diaminoethane] + O | 974.3

---

# measurement.conditions: 313.15 K; 101 kPa; Liquid; Vibrating tube method
reported.endpoint: mass density (kg/m3)

sample.smiles | reported.endpoint | reported.result
NCCNCCN | mass density | 933.8
CNCCCN | mass density | 840.3
CN(C)CCCN(C)C | mass density | 767.4
CN(C)CCN(C)C | mass density | 759.1

---

# assay: wn = mass fraction of the nth substance listed
# measurement.conditions: 313.15 K; 101 kPa; Liquid; Taylor dispersion method; w1 = 0.4
reported.endpoint: binary diffusion coefficient (m2/s)

Check out these entries, answers already filled in.
compound | reported.endpoint | reported.result
CNCCCN [N-methyl-1,3-diaminopropane] + O | binary diffusion coefficient | 7.77e-10
CN(C)CCN(C)C [N,N,N',N'-tetramethyl-1,2-diaminoethane] + O | binary diffusion coefficient | 4.25e-10

(A) NCCNCCN [di(2-aminoethyl)amine] + O
(B) CN(C)CCCN(C)C [N,N,N',N'-tetramethyl-1,3-propanediamine] + O
Task: Hello, I am sorting some records. Could you say if A or B has the smaller binary diffusion coefficient value? // respond with label for picked entry
Result: B
(B: 3.45e-10 m2/s, A: 7.41e-10 m2/s)

---

# assay: wn = mass fraction of the nth substance listed
# measurement.conditions: 308.15 K; 101 kPa; Liquid; Taylor dispersion method; w1 = 0.4
reported.endpoint: binary diffusion coefficient (m2/s)

Consider the following illustrative entries.
molecule | reported.result
CN(C)CCN(C)C [N,N,N',N'-tetramethyl-1,2-diaminoethane] + O | 3.66e-10
NCCNCCN [di(2-aminoethyl)amine] + O | 6.6e-10

(a) CNCCCN [N-methyl-1,3-diaminopropane] + O
(b) CN(C)CCCN(C)C [N,N,N',N'-tetramethyl-1,3-propanediamine] + O
Task: Given the listed items, does a or b have the lesser reported binary diffusion coefficient? Respond with the label that goes with your answer.
Result: b
(b: 2.89e-10 m2/s, a: 6.92e-10 m2/s)

---

# assay: wn = mass fraction of the nth substance listed
# measurement.conditions: 303.15 K; 101 kPa; Liquid; Taylor dispersion method; w1 = 0.1
reported.endpoint: binary diffusion coefficient (m2/s)

compound | binary diffusion coefficient, m2/s
CN(C)CCN(C)C [N,N,N',N'-tetramethyl-1,2-diaminoethane] + O | 5.61e-10
NCCNCCN [di(2-aminoethyl)amine] + O | 7.01e-10

(1) CN(C)CCCN(C)C [N,N,N',N'-tetramethyl-1,3-propanediamine] + O
(2) CNCCCN [N-methyl-1,3-diaminopropane] + O
Task: # min-compare on binary diffusion coefficient between 1 and 2 Kindly state the label of the option you pick.
Result: 1
(1: 4.86e-10 m2/s, 2: 7.35e-10 m2/s)

---

# assay: wn = mass fraction of the nth substance listed
# measurement.conditions: 313.15 K; 101 kPa; Liquid; Taylor dispersion method; w1 = 0
reported.endpoint: binary diffusion coefficient (m2/s)

molecule | binary diffusion coefficient / m2/s
CN(C)CCCN(C)C [N,N,N',N'-tetramethyl-1,3-propanediamine] + O | 9.04e-10
CN(C)CCN(C)C [N,N,N',N'-tetramethyl-1,2-diaminoethane] + O | 9.38e-10
CNCCCN [N-methyl-1,3-diaminopropane] + O | 1.05e-09
NCCNCCN [di(2-aminoethyl)amine] + O | 9.5e-10

---

# measurement.conditions: 318.15 K; 101 kPa; Liquid; Vibrating tube method
reported.endpoint: mass density (kg/m3)

molecule | reported.result
CNCCCN [N-methyl-1,3-diaminopropane] | 835.9
CN(C)CCN(C)C [N,N,N',N'-tetramethyl-1,2-diaminoethane] | 754.7
CN(C)CCCN(C)C [N,N,N',N'-tetramethyl-1,3-propanediamine] | 765
NCCNCCN [di(2-aminoethyl)amine] | 929.6

---

# assay: wn = mass fraction of the nth substance listed
# measurement.conditions: 318.15 K; 101 kPa; Liquid; Falling or rolling sphere viscometry; w1 = 0.2
reported.endpoint: viscosity (mPa·s)

compound | reported.endpoint | reported.result
CN(C)CCN(C)C [N,N,N',N'-tetramethyl-1,2-diaminoethane] + O | viscosity | 1.481
CN(C)CCCN(C)C [N,N,N',N'-tetramethyl-1,3-propanediamine] + O | viscosity | 1.488
NCCNCCN [di(2-aminoethyl)amine] + O | viscosity | 1.366
CNCCCN [N-methyl-1,3-diaminopropane] + O | viscosity | 1.333

---

# assay: wn = mass fraction of the nth substance listed
# measurement.conditions: 313.15 K; 101 kPa; Liquid; Vibrating tube method; w1 = 0.1
reported.endpoint: mass density (kg/m3)

molecule | mass density (kg/m3)
CNCCCN [N-methyl-1,3-diaminopropane] + O | 984.7
CN(C)CCN(C)C [N,N,N',N'-tetramethyl-1,2-diaminoethane] + O | 979
NCCNCCN [di(2-aminoethyl)amine] + O | 994.8
CN(C)CCCN(C)C [N,N,N',N'-tetramethyl-1,3-propanediamine] + O | 979.3

---

# assay: wn = mass fraction of the nth substance listed
# measurement.conditions: 303.15 K; 101 kPa; Liquid; Vibrating tube method; w1 = 0.2
reported.endpoint: mass density (kg/m3)

compound | reported.endpoint | reported.result
CNCCCN [N-methyl-1,3-diaminopropane] + O | mass density | 983.9
CN(C)CCCN(C)C [N,N,N',N'-tetramethyl-1,3-propanediamine] + O | mass density | 972.5
NCCNCCN [di(2-aminoethyl)amine] + O | mass density | 1002.9
CN(C)CCN(C)C [N,N,N',N'-tetramethyl-1,2-diaminoethane] + O | mass density | 972.6

---

# assay: wn = mass fraction of the nth substance listed
# measurement.conditions: 303.15 K; 101 kPa; Liquid; Vibrating tube method; w1 = 0.3
reported.endpoint: mass density (kg/m3)

compound | reported.endpoint | readout.units | reported.result
NCCNCCN [di(2-aminoethyl)amine] + O | mass density | kg/m3 | 1009.8
CNCCCN [N-methyl-1,3-diaminopropane] + O | mass density | kg/m3 | 980.7
CN(C)CCCN(C)C [N,N,N',N'-tetramethyl-1,3-propanediamine] + O | mass density | kg/m3 | 960.1
CN(C)CCN(C)C [N,N,N',N'-tetramethyl-1,2-diaminoethane] + O | mass density | kg/m3 | 962.1
